These entries and their values trace back to ChEMBL document CHEMBL1153101.

Assay: Permeability by PAMPA
Format: ADME
Details: read-out: permeability
Observation type: Papp

GET /value?item= OC[C@H](Cc1c[nH]cn1)Nc1nccc(-c2ccc3ccccc3c2)n1 &field=Papp returns 0.13 ×10⁻⁶ cm/s

====

Assay: Aqueous solubility of the compound
Type: physicochemical
Observation type: solubility (µg/mL)
Field: numeric (µg/mL). Do not append units.

For reference, reported solubility for OC[C@H](Cc1c[nH]cn1)Nc1nccc(-c2ccc3ccccc3c2)n1 stands at 65
